Assignment: determine reported clearance for the given molecules.
- EXPERIMENT_DESCRIPTION: Pharmacokinetic test in SD rats (oral 10 mg/kg, intravenous 1 mg/kg)
- Type: in vivo
- CONDITION_DETAILS: male, plasma; SD rat, intravenous 1 mg/kg; read-out: Cl (iv) (converted)
Write the number in mL/min/kg without appending the unit.

query: Please give the measured clearance for this molecule: C=CC(=O)N1C2CC[C@@H](C2)C1c1nc(-c2ccc(C(C)(O)c3ccccc3)cc2)c2c(N)nccn12 (some centres unmarked)
result: 57.5

query: Please give the measured clearance for this molecule: C=CC(=O)N1C2CCC1(c1nc(-c3ccc(C(=O)Nc4ccccn4)cc3)c3c(N)nccn13)COC2 (centres unmarked)
result: 36.5

query: Please give the measured clearance for this molecule: C=CC(=O)N1CC2CCCC2C1c1nc(-c2ccc(C(=O)Nc3ccccn3)cc2)c2c(N)nccn12 (centres unmarked)
result: 57

query: Please give the measured clearance for this molecule: C=CC(=O)N1[C@@H]2CC[C@@H](C2)[C@H]1c1nc(-c2ccc(C(=O)Nc3ccccn3)cc2)c2c(N)nccn12
result: 58.5

query: Please give the measured clearance for this molecule: C=CC(=O)N1C[C@H]2[C@@H]([C@H]1c1nc(-c3ccc(C(=O)Nc4ccccn4)cc3)c3c(N)nccn13)C2(C)C
result: 121

query: Please give the measured clearance for this molecule: CC#CC(=O)N1C2CC[C@@H](C2)C1c1nc(-c2ccc(C(=O)Nc3cc(C(F)(F)F)ccn3)cc2)c2c(N)nccn12 (some centres unmarked)
result: 38

query: Please give the measured clearance for this molecule: CC#CC(=O)N1CCC[C@H]1c1nc(-c2ccc(C(=O)Nc3ccccn3)cc2)c2c(N)nccn12 [ACP-196, reference compound]
result: 125

query: Please give the measured clearance for this molecule: C=CC(=O)N1CC2CCCC2C1c1nc(-c2ccc(Oc3ccccc3)cc2)c2c(N)nccn12 (centres unmarked)
result: 32.7

----------
- System: TMD8 cells
- EXPERIMENT_DESCRIPTION: Cell proliferation inhibition in vitro, TMD8 cells by CCK-8 method
- Format: cell-based
- CONDITION_DETAILS: Homo sapiens, 72 hours, read-out: Inhibitions of cell activities IC50 (nM) TMD8
RECORDED_ENDPOINT: IC50 (nM)
Write the number in nM without appending the unit.

query: Please give the measured IC50 for this compound: C=CC(=O)N1[C@@H]2CC[C@@H](C2)[C@H]1c1nc(-c2ccc(C(=O)Nc3ccccn3)cc2)c2c(N)nccn12
result: 4.2

query: Please give the measured IC50 for this compound: C=CC(=O)N1CC2CCCC2C1c1nc(-c2ccc(C(=O)Nc3cc(Cl)ccn3)cc2)c2c(N)nccn12 (centres unmarked)
result: 3.2

query: Please give the measured IC50 for this compound: CC#CC(=O)N1CC2CC1(c1nc(-c3ccc(C(=O)Nc4ccccn4)cc3)c3c(N)nccn13)CO2 (centres unmarked)
result: 6.3

query: Please give the measured IC50 for this compound: C=CC(=O)N1C[C@H]2[C@@H](C1c1nc(-c3ccc(C(=O)Nc4cc(C(F)(F)F)ccn4)cc3)c3c(N)nccn13)C2(C)C (some centres unmarked)
result: 7.8

query: Please give the measured IC50 for this compound: CC#CC(=O)N1C2CN[C@@H](C2)C1c1nc(-c2ccc(C(=O)Nc3ccccn3)cc2)c2c(N)nccn12 (some centres unmarked)
result: 7.5

query: Please give the measured IC50 for this compound: C=CC(=O)N1CC2CC1(c1nc(-c3ccc(C(=O)Nc4ccccn4)cc3)c3c(N)nccn13)CO2 (centres unmarked)
result: 0.2

query: Please give the measured IC50 for this compound: CN(C)C/C=C/C(=O)N1CC2(CC2)C[C@H]1c1nc(-c2ccc(C(=O)Nc3ccccn3)cc2)c2c(N)nccn12
result: 0.31

query: Please give the measured IC50 for this compound: CC#CC(=O)N1C2CCC1(c1nc(-c3ccc(C(=O)Nc4cc(C(F)(F)F)ccn4)cc3)c3c(N)nccn13)COC2 (centres unmarked)
result: 6.4

query: Please give the measured IC50 for this compound: C=CC(=O)N1C2C[C@@H](C1c1nc(-c3ccc(Oc4ccccc4)cc3)c3c(N)nccn13)N(C)C2 (some centres unmarked)
result: 14.3

query: Please give the measured IC50 for this compound: C=CC(=O)N1C2C[C@@H](C1c1nc(-c3ccc(C(=O)Nc4ccccn4)cc3)c3c(N)nccn13)N(C(C)C)C2 (some centres unmarked)
result: 1.6

query: Please give the measured IC50 for this compound: C=CC(=O)N1C2CCC1(c1nc(-c3ccc(C(C)(O)c4ccccc4)cc3)c3c(N)nccn13)COC2 (centres unmarked)
result: 6.8

query: Please give the measured IC50 for this compound: C=CC(=O)N1CC2(CC2)C[C@H]1c1nc(-c2ccc(C(C)(O)c3ccccc3)cc2)c2c(N)nccn12 (some centres unmarked)
result: 9.7

query: Please give the measured IC50 for this compound: CC#CC(=O)N1C2CCC1(c1nc(-c3ccc(C(=O)Nc4ccccn4)cc3)c3c(N)nccn13)COC2 (centres unmarked)
result: 4.3

query: Please give the measured IC50 for this compound: C=CC(=O)N1C2C[C@@H](C1c1nc(-c3ccc(Oc4ccccc4)cc3)c3c(N)nccn13)N(C(C)=O)C2 (some centres unmarked)
result: 1.2

----------
Assignment: determine reported IC50 for the given molecules.
- Test system: DOHH2 cells
- EXPERIMENT_DESCRIPTION: Cell proliferation inhibition in vitro, DOHH2 cells by CTG assay
- Format: cell-based
- CONDITION_DETAILS: Homo sapiens, DOHH-2, 72 hours, read-out: Inhibitions of cell activities IC50 (nM) DOHH2
Write the number in nM without appending the unit.

query: What IC50 appears in the records for this molecule with DOHH2 cells? C=CC(=O)N1CC2CC1(c1nc(-c3ccc(C(=O)Nc4ccccn4)cc3)c3c(N)nccn13)CO2 (centres unmarked)
result: 74.3

query: What IC50 appears in the records for this molecule with DOHH2 cells? C=CC(=O)N1CC2CCCC2C1c1nc(-c2ccc(C(=O)Nc3ccccn3)cc2)c2c(N)nccn12 (centres unmarked)
result: 191

query: What IC50 appears in the records for this molecule with DOHH2 cells? C=CC(=O)N1CC2CCCC2C1c1nc(-c2ccc(C(=O)Nc3cc(Cl)ccn3)cc2)c2c(N)nccn12 (centres unmarked)
result: 172

query: What IC50 appears in the records for this molecule with DOHH2 cells? CC#CC(=O)N1C2CCC1(c1nc(-c3ccc(C(C)(O)c4ccccc4)cc3)c3c(N)nccn13)COC2 (centres unmarked)
result: 96

query: What IC50 appears in the records for this molecule with DOHH2 cells? C=CC(=O)N1C2CCC1(c1nc(-c3ccc(C(C)(O)c4ccccc4)cc3)c3c(N)nccn13)COC2 (centres unmarked)
result: 48

query: What IC50 appears in the records for this molecule with DOHH2 cells? C=CC(=O)N1C2CCC1(c1nc(-c3ccc(C(=O)Nc4cc(C(F)(F)F)ccn4)cc3)c3c(N)nccn13)COC2 (centres unmarked)
result: 103

query: What IC50 appears in the records for this molecule with DOHH2 cells? C=CC(=O)N1CCC[C@@H](n2nc(-c3ccc(Oc4ccccc4)cc3)c3c(N)ncnc32)C1 [Ibrutinib, reference compound]
result: 705

query: What IC50 appears in the records for this molecule with DOHH2 cells? C=CC(=O)N1C[C@H]2[C@@H]([C@H]1c1nc(-c3ccc(C(=O)Nc4ccccn4)cc3)c3c(N)nccn13)C2(C)C
result: 175

query: What IC50 appears in the records for this molecule with DOHH2 cells? C=CC(=O)N1C2CCC1(c1nc(-c3ccc(C(=O)Nc4ccccn4)cc3)c3c(N)nccn13)COC2 (centres unmarked)
result: 133

----------
- Test system: TMD8 cells
- EXPERIMENT_DESCRIPTION: Cell proliferation inhibition in vitro, TMD8 cells by CCK-8 method
- Format: cell-based
- CONDITION_DETAILS: Homo sapiens, 72 hours, read-out: Inhibitions of cell activities IC50 (nM) TMD8
Please note: IC50 exactly at 6 nM is label 0. Only values below 6 nM get label 1.

query: Lab note: confirm whether the reported IC50 for this compound is below 6 nM, equality not counting. compound: CC#CC(=O)N1C[C@H]2[C@@H](C1c1nc(-c3ccc(C(=O)Nc4cc(C(F)(F)F)ccn4)cc3)c3c(N)nccn13)C2(C)C (stereo partly shown) [Example 45]
result: label 0

query: Lab note: confirm whether the reported IC50 for this compound is below 6 nM, equality not counting. compound: C=CC(=O)N1C2CN[C@@H](C2)C1c1nc(-c2ccc(C(=O)Nc3cc(C(F)(F)F)ccn3)cc2)c2c(N)nccn12 (stereo partly shown) [Example 52]
result: label 0

query: Lab note: confirm whether the reported IC50 for this compound is below 6 nM, equality not counting. compound: CC#CC(=O)N1CC2CCCC2C1c1nc(-c2ccc(Oc3ccccc3)cc2)c2c(N)nccn12 (stereo not shown) [Example 97]
result: label 0

query: Lab note: confirm whether the reported IC50 for this compound is below 6 nM, equality not counting. compound: CN(C/C=C/C(=O)N1CC2CCCC2[C@H]1c1nc(-c2ccc(C(=O)Nc3ccccn3)cc2)c2c(N)nccn12)C1CC1 (stereo partly shown) [Example 115]
result: label 0

query: Lab note: confirm whether the reported IC50 for this compound is below 6 nM, equality not counting. compound: C=CC(=O)N1C2C[C@@H](C1c1nc(-c3ccc(Oc4ccccc4)cc3)c3c(N)nccn13)N(C(C)C)C2 (stereo partly shown) [Example 109]
result: label 0

query: Lab note: confirm whether the reported IC50 for this compound is below 6 nM, equality not counting. compound: CC#CC(=O)N1C2CC[C@@H](C2)C1c1nc(-c2ccc(Oc3ccccc3)cc2)c2c(N)nccn12 (stereo partly shown) [Example 99]
result: label 1

query: Lab note: confirm whether the reported IC50 for this compound is below 6 nM, equality not counting. compound: CC#CC(=O)N1[C@H]2CC[C@@H]1[C@@H](c1nc(-c3ccc(C(=O)Nc4ccccn4)cc3)c3c(N)nccn13)C2 [Example 119]
result: label 1
